test system: Differentiated U937 cells; assay: MTT assay (cell viability); type: cell-based, human; details: Table 2; loss of cell viability at 1 μg/ml
REPORTED ENDPOINT: DU937 (cell viability) MTT assay 24 h

Cc1ccc(-n2nc(C(C)(C)C)cc2NC(=O)Nc2ccc(Oc3ccnc(NC(=O)CNC(=O)C4CCOCC4)c3)c3ccccc23)cc1	+ (>30%)
COCC(=O)Nc1cc(Oc2ccc(NC(=O)Nc3cc(C(C)(C)C)nn3-c3ccc(C)cc3)c(C)c2C)ccn1	+ (>30%)
[2H]c1c([2H])c(C([2H])([2H])[2H])c([2H])c([2H])c1-n1nc(C(C)(C)C)cc1NC(=O)Nc1ccc(Oc2ccnc(NC(=O)COC)c2)c2ccccc12	+ (>30%)

====

Exercise: for every item that follows, state its recorded IC50.
target: p38 MAPK alpha (MAPK14) (Homo sapiens); construct: purchased Invitrogen; experiment: Enzyme inhibition assay, p38 MAPK alpha (FRET, Z-LYTE, via MAPKAP-K2); assay type: biochemical; conditions: Table 3; read-out: Enzyme p38α IC50
Sequence (Q16539 whole entry): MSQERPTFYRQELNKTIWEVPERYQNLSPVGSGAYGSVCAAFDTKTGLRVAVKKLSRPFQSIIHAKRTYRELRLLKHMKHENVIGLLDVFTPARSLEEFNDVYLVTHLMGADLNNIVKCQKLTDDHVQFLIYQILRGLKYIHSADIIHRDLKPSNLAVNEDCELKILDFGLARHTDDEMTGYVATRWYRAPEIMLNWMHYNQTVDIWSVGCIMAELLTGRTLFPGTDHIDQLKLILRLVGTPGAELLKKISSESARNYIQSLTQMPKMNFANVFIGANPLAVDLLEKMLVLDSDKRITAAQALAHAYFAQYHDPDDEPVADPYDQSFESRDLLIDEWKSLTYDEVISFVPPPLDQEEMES

Record excerpt, results attached:
Cc1ccc(-n2nc(C(C)(C)C)cc2NC(=O)Nc2ccc(Oc3ccnc(NC(=O)NCC(=O)N4CCN(C)CC4)c3)c3ccccc23)cc1	< 10 nM
Cc1ccc(-n2nc(C(C)(C)C)cc2NC(=O)Nc2ccc(Oc3ccnc(NC(=O)NCCCn4ccnc4)c3)c3ccccc23)cc1	< 5000 nM
Cc1ccc(-n2nc(C(C)(C)C)cc2NC(=O)Nc2ccc(Oc3ccnc(NC(=O)NCCCCN4CCOCC4)c3)c3ccccc23)cc1	< 10 nM

The following compounds each have a reported value; give each one's IC50.
1. Cc1ccc(-n2nc(C(C)(C)C)cc2NC(=O)Nc2ccc(Oc3ccnc(NC(N)=O)c3)c3ccccc23)cc1
2. Cc1ccc(-n2nc(C(C)(C)C)cc2NC(=O)Nc2ccc(Oc3ccnc(NC(=O)NCC(=O)N4CCCC4)c3)c3ccccc23)cc1
3. COCCNC(=O)CNC(=O)Nc1cc(Oc2ccc(NC(=O)Nc3cc(C(C)(C)C)nn3-c3ccc(C)cc3)c3ccccc23)ccn1
4. Cc1ccc(-n2nc(C(C)(C)C)cc2NC(=O)Nc2ccc(Oc3ccnc(NC(=O)NCC(=O)N4CCOCC4)c3)c3ccccc23)cc1
5. Cc1ccc(-n2nc(C(C)(C)C)cc2NC(=O)Nc2ccc(Oc3ccnc(NC(=O)NC4CCN(C)CC4)c3)c3ccccc23)cc1

Response:
1. < 10 nM
2. < 10 nM
3. < 10 nM
4. < 10 nM
5. < 10 nM

The following compounds each have a reported value; give each one's IC50.
1. CCNC(=O)Nc1cc(Oc2ccc(NC(=O)Nc3cc(C(C)(C)C)nn3-c3ccc(C)cc3)c3ccccc23)ccn1
2. Cc1ccc(-n2nc(C(C)(C)C)cc2NC(=O)Nc2ccc(Oc3ccnc(NC(=O)N4CCCCC4)c3)c3ccccc23)cc1
3. COCCNC(=O)Nc1cc(Oc2ccc(NC(=O)Nc3cc(C(C)(C)C)nn3-c3ccc(C)cc3)c3ccccc23)ccn1

Response:
["< 5000 nM", "< 10 nM", "< 5000 nM"]

The following compounds each have a reported value; give each one's IC50.
1. Cc1ccc(-n2nc(C(C)(C)C)cc2NC(=O)Nc2ccc(Oc3ccnc(NC(=O)NCC(=O)NCCN4CCOCC4)c3)c3ccccc23)cc1
2. Cc1ccc(-n2nc(C(C)(C)C)cc2NC(=O)Nc2ccc(Oc3ccnc(NC(=O)NC4CCN(S(C)(=O)=O)CC4)c3)c3ccccc23)cc1

Response:
< 10 nM
< 10 nM

Where do the numbers come from? From patent US8299074B2.
